Entry source: patent US20260265403A1

Here the recorded pKd is given for each entry.
Target: T1, Human CD24 (human, UniProt P25063 27-59, limits assumed)
T1 chain (looked up): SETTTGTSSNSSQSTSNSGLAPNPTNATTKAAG
Experiment: SPR affinity ranking, 1:1 binding, analyte conc. 19.71 nM
Keep in mind that pKd stands for -log10 of concentration in molar terms.

Would you please look over these solved cases?
Binder	Recorded Number
Antibody No 15 (4451HM15), lead clone of 4451H (HC N35G, T59Y; LC K27A) (antibody, V domains shown) VH: QVQLVQSGAEVKKPGASVKVSCKASGYDFTGYHMGWVRQAPGQGLEWMGEINPITSDKYFNQKFKSRVTMTRDTSISTAYMELSRLRSDDTAVYYCARRDYGTSLDYWGQGTTVTVSS VL: DIQLTQSPSFLSASVGDRVTITCRASASISKYLAWYQQKPGKAPKLLIYAGSTLHSGIPSRFRGSGSGTEFTLTISSLQPEDFATYYCQQHNEYPITFGQGTKLEIK	8.15
Antibody No 16, lead clone of 4451H (HC N35G, T59Y; LC S30K) (antibody, V domains shown) VH: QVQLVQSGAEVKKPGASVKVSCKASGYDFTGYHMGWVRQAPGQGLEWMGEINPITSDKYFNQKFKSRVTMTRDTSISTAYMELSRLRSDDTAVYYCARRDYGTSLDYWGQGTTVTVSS VL: DIQLTQSPSFLSASVGDRVTITCRASKSIKKYLAWYQQKPGKAPKLLIYAGSTLHSGIPSRFRGSGSGTEFTLTISSLQPEDFATYYCQQHNEYPITFGQGTKLEIK	8.12

Prompt line: # query: pKd of entry Antibody No 5, lead clone of 4451H (HC N35G; LC S30K) (antibody, V domains shown) VH: QVQLVQSGAEVKKPGASVKVSCKASGYDFTGYHMGWVRQAPGQGLEWMGEINPITSDKTFNQKFKSRVTMTRDTSISTAYMELSRLRSDDTAVYYCARRDYGTSLDYWGQGTTVTVSS VL: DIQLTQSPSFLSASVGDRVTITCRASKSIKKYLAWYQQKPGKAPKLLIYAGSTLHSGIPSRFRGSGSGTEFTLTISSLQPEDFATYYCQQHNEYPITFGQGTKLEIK
Response line: 8.10
